viability, T/C values by entry
Tested on: 349418-098-R-PDC complex spheroid viability;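 also: spheroids exposed to compound for seven days before viability readout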
test_summary: Anticancer human tumor 349418-098-R-PDC patient-derived lung adenocarcinoma cell line growth inhibition [RAS]
stated_conditions: second compound 1 µM; first compound 0.316 µM; hits give low values
Text: RAS pathway inhibitors in Combinations in Complex Spheroids A high-throughput screen of multi-cell type tumor spheroids was designed to identify active combinations of RAS pathway inhibitors and targeted small molecules. Complex spheroids include a stromal component modeled by human endothelial cells (HUVEC) and fibroblasts modeled by human mesenchymal stem cells (MSCs). […] Compounds. […] If the clinical Cmax for an agent had not been determined, the highest concentration tested was 10 microM. […]
Numeric only. Scale: %

Past entries and their recorded results:
[
  {
    "molecule": "CCC(CC)c1cc(NC2CCC(N)C2)n2nccc2n1 (stereo not drawn) + C#Cc1c(F)ccc2cc(O)cc(-c3ncc4c(N5CC6CCC(C5)N6)nc(OCC56CCCN5CC(F)C6)nc4c3F)c12",
    "unit_descriptor": "%",
    "viability, T/C": 67.2
  },
  {
    "molecule": "CC(C)NCC(C(=O)N1CCN(c2ncnc3c2C(C)CC3O)CC1)c1ccc(Cl)cc1 (stereo not drawn) + C=CC(=O)N1CCN(c2nc(OCC3CCCN3C)nc3c(F)c(-c4nc(N)cc(C)c4C(F)(F)F)c(Cl)cc23)C(C)C1",
    "unit_descriptor": "%",
    "viability, T/C": 71.8
  }
]

# context switch: different molecule, same viability, T/C
Please look at this molecule and report its viability, T/C: CC(C)NCC(C(=O)N1CCN(c2ncnc3c2C(C)CC3O)CC1)c1ccc(Cl)cc1 (stereo not drawn) + C#Cc1c(F)ccc2cc(O)cc(-c3ncc4c(N5CC6CCC(C5)N6)nc(OCC56CCCN5CC(F)C6)nc4c3F)c12
62.9
